- MEASUREMENT_TARGET: HIV-1 RT-associated RNase H (wt RT) (Human immunodeficiency virus type 1 group M subtype B)
- EXPERIMENTAL_DETAILS: HIV-1 DNA polymerase-independent RNase H activity, wt RT
- STATED_CONDITIONS: RT-associated RNase H activity IC50 (comparative inhibition, Figure 2B), inhibitor and substrate added before the enzyme (competition)
METRIC: IC50 (µM)
Respond numerically; units are µM and should not be typed.

Can you share its IC50? I mean this compound: `O=C(N/N=C/c1ccccc1O)c1cc(O)c(O)c(O)c1`
3.6

###

Field: CC50. Provide a value for each of the molecules that follow.
- EXPERIMENTAL_DETAILS: in vitro
- STATED_CONDITIONS: human

Can you share its CC50? I mean this molecule: `Cc1nnc(C(=O)NC(C)(C)c2nc(C(=O)NCc3ccc(F)cc3)c(O)c(=O)n2C)o1`
> 2.25 µM

Same for `Cc1ccnc2c1NC(=O)c1cccnc1N2C1CC1`
> 3.7 µM

Same for `Cc1cn([C@H]2C[C@H](N=[N+]=[N-])[C@@H](CO)O2)c(=O)[nH]c1=O`
> 3.7 µM

Same for `O=C1Nc2ccc(Cl)cc2[C@@](C#CC2CC2)(C(F)(F)F)O1`
> 0.31 µM

Same for `O=C(N/N=C/c1ccccc1O)c1cc(O)c(O)c(O)c1`
61.5 µM

Same for `O=C(N/N=C/c1cc(O)c(O)cc1O)c1cc(O)c(O)c(O)c1`
31.8 µM
